Where these numbers come from: FireProtDB (doi:10.1016/j.jmb.2009.11.038)

B1: H8S, Q5NV88 (parent)
chain: NFMLTQPHSVSESPGKTVTISCTRSSGSIASNYVQWYQQRPGSSPTTVIYEDNQRPSGVPDRFSGSIDSSSNSASLTISGLKTEDEADYYCQSYDSSN

Variants of: B1
Settings: Homo sapiens; pH 7.5; Thermal; Fluorescence; Sodium phosphate 20mM; transition: 2; structure 2W0K; whole UniProt chain shown
Catalogue of Tm values
Numeric only. Scale: °C

Variant String	Tm (°C)
H8S	49.5
P7S H8S	43.7
P7S	43

Next:
The variant listed as `H8P` shows Tm equal to 50.1
